- Target Entity: hERG potassium channel (Homo sapiens)
- Sequence (Q12809 whole entry): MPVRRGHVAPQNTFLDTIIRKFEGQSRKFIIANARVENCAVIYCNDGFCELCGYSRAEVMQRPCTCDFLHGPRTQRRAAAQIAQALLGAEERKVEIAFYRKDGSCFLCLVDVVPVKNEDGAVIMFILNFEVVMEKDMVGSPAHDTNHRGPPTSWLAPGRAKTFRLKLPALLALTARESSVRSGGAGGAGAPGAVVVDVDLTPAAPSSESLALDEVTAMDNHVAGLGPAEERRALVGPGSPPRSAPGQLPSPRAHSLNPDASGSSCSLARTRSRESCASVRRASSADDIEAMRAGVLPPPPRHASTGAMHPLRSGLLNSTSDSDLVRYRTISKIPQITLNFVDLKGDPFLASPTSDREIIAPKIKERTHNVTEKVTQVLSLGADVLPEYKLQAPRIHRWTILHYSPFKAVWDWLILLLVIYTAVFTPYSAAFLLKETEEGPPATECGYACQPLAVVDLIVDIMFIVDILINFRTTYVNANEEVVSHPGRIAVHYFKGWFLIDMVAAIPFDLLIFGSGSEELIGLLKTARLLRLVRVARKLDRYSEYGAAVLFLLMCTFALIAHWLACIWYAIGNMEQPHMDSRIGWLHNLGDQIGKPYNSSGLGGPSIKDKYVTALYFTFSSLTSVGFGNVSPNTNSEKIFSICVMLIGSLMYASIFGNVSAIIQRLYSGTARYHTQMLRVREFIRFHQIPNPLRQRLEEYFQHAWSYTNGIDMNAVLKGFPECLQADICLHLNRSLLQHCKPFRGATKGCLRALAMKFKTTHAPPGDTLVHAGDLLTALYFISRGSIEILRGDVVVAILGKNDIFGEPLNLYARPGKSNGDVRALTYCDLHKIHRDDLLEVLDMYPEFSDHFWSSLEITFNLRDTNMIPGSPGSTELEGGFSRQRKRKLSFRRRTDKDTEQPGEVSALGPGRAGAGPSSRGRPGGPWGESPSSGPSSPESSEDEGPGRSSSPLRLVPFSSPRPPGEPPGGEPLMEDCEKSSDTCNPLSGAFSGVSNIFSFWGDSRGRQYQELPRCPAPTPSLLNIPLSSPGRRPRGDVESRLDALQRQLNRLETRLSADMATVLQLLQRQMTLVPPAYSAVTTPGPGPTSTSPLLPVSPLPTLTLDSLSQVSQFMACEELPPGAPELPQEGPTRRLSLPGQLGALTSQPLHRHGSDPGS
- Assay Comment: Test for hERG potassium ion channel (manual whole cell patch-clamp, CHO cells)
- Measurement Context: read-out: IC50 (hERG potassium channel current)
Assay Metric: IC50

• C=C(C)CC(C)(N)COc1ccc(-c2ccnc(C(F)F)c2)nc1C(F)F (single isomer, unassigned) = 8.75 µM

====

- Assay Comment: Mouse brain/blood ratio test
- Type: in vivo, ICR mice
- Measurement Context: male, ICR, mouse, plasma, po; mice, i.g. (10 mg/kg); read-out: Plasma AUC0-t
Assay Metric: AUC(0-t)

* C=C(C)CC(C)(N)COc1ccc(-c2ccnc(C(F)F)c2)nc1C(F)F (single isomer, unassigned) [Compound 2] | 572 ng·h/mL
